# measured_on: T1, Human CD19-his protein (human, UniProt P15391 20-291)
# T1 construct: bought protein; also called human CD19 protein; recombinant human CD19-His; not shown: His tag
# T1 sequence (looked up): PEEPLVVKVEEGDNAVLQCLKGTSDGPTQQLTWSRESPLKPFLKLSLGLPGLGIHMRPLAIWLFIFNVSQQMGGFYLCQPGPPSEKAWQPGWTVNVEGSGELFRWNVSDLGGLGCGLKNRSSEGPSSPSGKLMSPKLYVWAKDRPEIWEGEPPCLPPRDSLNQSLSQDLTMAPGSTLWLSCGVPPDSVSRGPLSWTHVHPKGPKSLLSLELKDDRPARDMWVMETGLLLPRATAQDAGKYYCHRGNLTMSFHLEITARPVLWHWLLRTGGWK
# assay_method_text: ELISA, antibody at 0.001 nM
Exercise: for every item that follows, state its recorded OD450.
One number for each entry.

Memo: F4.35.5 (antibody, human IgG1, V domains shown, human-murine chimeric antibody, human IgG1) VH: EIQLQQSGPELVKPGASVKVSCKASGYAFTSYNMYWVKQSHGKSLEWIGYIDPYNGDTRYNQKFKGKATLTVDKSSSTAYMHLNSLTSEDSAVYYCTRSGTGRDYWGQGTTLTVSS VL: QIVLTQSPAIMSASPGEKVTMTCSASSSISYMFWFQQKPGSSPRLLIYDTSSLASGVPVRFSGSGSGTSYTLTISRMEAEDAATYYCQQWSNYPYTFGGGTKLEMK , reported OD450: 0.05

Memo: F4.191.1 (antibody, human IgG1, V domains shown, human-murine chimeric antibody, human IgG1) VH: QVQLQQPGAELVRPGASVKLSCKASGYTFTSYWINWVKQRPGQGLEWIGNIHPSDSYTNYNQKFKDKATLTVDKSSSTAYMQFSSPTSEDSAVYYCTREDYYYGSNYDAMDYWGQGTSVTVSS VL: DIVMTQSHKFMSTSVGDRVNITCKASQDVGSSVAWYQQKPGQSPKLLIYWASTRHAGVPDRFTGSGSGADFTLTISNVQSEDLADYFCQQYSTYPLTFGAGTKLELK , reported OD450: 0.06

Now look at this entry.
Memo: F3.64.4 (antibody, human IgG1, V domains shown, human-murine chimeric antibody, human IgG1) VH: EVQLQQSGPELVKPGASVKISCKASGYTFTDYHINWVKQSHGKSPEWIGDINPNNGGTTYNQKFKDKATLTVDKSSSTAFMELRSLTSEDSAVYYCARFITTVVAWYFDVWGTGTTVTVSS VL: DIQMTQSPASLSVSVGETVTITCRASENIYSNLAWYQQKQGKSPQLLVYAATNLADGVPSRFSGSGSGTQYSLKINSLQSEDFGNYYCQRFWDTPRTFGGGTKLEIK , reported OD450: 0.06
